Assay: total protein half-life in vivo (active degradation + dilution); higher = more stable protein
Settings: E. coli NCM3722 delta-clpP delta-lon delta-hslV; growth: N-lim chemostat; doubling time 6 h
# reported total protein half-life in vivo; entries follow

polymer-sequence: MTKIIAVTACPSGVAHTYMAAEALESAAKAKGWEVKVETQGSIGLENELTAEDVASADMVILTKDIGIKFEERFAGKTIVRVNISDAVKRADAIMSKIEAHLAQTA
total protein half-life in vivo, h: 4.85
--
polymer-sequence: MAQRVQLTATVSENQLGQRLDQALAEMFPDYSRSRIKEWILDQRVLVNGKVCDKPKEKVLGGEQVAINAEIEEEARFEPQDIPLDIVYEDEDIIIINKPRDLVVHPGAGNPDGTVLNALLHYYPPIADVPRAGIVHRLDKDTTGLMVVAKTVPAQTRLVESLQRREITREYEAVAIGHMTAGGTVDEPISRHPTKRTHMAVHPMGKPAVTHYRIMEHFRVHTRLRLRLETGRTHQIRVHMAHITHPLVGDPVYGGRPRPPKGASEAFISTLRKFDRQALHATMLRLYHPISGIEMEWHAPIPQDMVELIEVMRADFEEHKDEVDWL
total protein half-life in vivo, h: 5.82
--
polymer-sequence: MTVTRPRAERGAFPPGTEHYGRSLLGAPLIWFPAPAASRESGLILAGTHGDENSSVVTLSCALRTLTPSLRRHHVVLCVNPDGCQLGLRANANGVDLNRNFPAANWKEGETVYRWNSAAEERDVVLLTGDKPGSEPETQALCQLIHRIQPAWVVSFHDPLACIEDPRHSELGEWLAQAFELPLVTSVGYETPGSFGSWCADLNLHCITAEFPPISSDEASEKYLFAMANLLRWHPKDAIRPS [P0ACV6]
total protein half-life in vivo, h: 4.35
--
polymer-sequence: MKRLRNKMTTEELAECLGVAKQTVNRWIREKGWKTEKFPGVKGGRARLILVDTQVCEFIQNTPAFHNTPMLMEAEERIAEYAPGARAPAYRQIINAIDNMTDIEQEKVAQFLSREGIRNFLARLDIDESA
total protein half-life in vivo, h: 6.16
